Reference source: paper PMC9482650

system.under.test: T1, NHERF3_1, Q5T2W1
T1 sequence (Q5T2W1 4-100, limits assumed, looked up): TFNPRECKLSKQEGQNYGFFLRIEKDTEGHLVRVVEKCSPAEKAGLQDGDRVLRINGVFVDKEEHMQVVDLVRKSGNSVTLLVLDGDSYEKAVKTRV
assay.method.text: holdup assay
Set-up: key: below the threshold = too weak to quantify, mostly under pKd 3.1 to 4
applied.conditions: plain residues with an end cap or a label only (N-terminal biotin on a linker: ttds)

binder	pKd
HIVEALETDV [PBK, Q96KB5]	below the threshold
LCALPKVTTV [AGMAT, Q9BSE5]	below the threshold
VNKVWDQSSV [CIT, O14578]	below the threshold
